From: PubChem BioAssay (NCI)

system: A498 renal; assay: NCI tumour cell line growth inhibition, 48 h; in the data active = GI50 below about 0.43 µM; inactive = the rest
// classify into active, inactive

Recorded results for 3 compounds are shown here.
CCOC(=O)c1c2c(n(-c3ccc(OC)cc3)c1C)C(=O)C(=O)c1ccccc1-2: inactive
CN(C)C(=S)NN=C(c1ccccn1)c1ccccn1: active
NC1CCCCC1N.O=C([O-])P(=O)([O-])[O-].[Na+].[Pt+4] (stereo not given): inactive

I'd appreciate the recorded outcome for `Nc1ccc(-c2nc3ccccc3[nH]2)c(O)c1` from this test.
inactive

I'd appreciate the recorded outcome for `C[C@]12CC/C(=N\N)C[C@@H]1CC[C@@H]1[C@@H]2CC[C@]2(C)/C(=N/N)CC[C@@H]12` from this test.
inactive

---

system: 786-0 renal; assay: NCI tumour cell line growth inhibition, 48 h
GI50 listing for selected compounds.

Worked examples follow.
CNC(=O)c1c(NC(=O)c2cccc(C(F)(F)F)c2)sc2c1CCC(=O)C2: 0.447 µM
NC(=O)C(Br)CBr (stereo unspecified): 5.65 µM
COC(=O)Nc1nc2ccc(Oc3ccc(NC(=O)Nc4cccc(Br)c4)cc3)cc2[nH]1: 3.9 µM
CC/C=C\C/C=C\C[C@H](O)C/C=C1/C(=O)C=C[C@H]1C/C=C\CCC(=O)OC: 3.53 µM
Nc1c(C(=O)c2cccc(-c3ccc[n+]([O-])c3)c2)cnn1-c1ccc(F)cc1F: > 25 µM

Please find the next compound below.
Can you share its GI50? I mean this compound: `O=C(Nc1ccc(Cl)cc1)c1cc2c(cc1O)[nH]c1ccccc12`
2.76 µM

---

TGI listing for selected compounds.
test system: U251 CNS; experiment: NCI tumour cell line growth inhibition, 48 h
All answers are understood in µM, so give the number only.

Worked examples follow.
NS(=O)(=O)c1ccc(C2C3=C(CCCC3=O)OC3=C2C(=O)c2ccccc2C3=O)cc1 (centres undefined): 1.05
N#Cc1c2ccccc2c2n1-c1ccccc1OC(c1ccccc1)C2=O (centres undefined): 15.7
Cc1ccccc1S(=O)(=O)N1[C@H](c2ccc(Cl)cc2)C(C(=O)N[C@@H](Cc2ccccc2)C(N)=O)=C[C@@H]1C(C)(C)C: 12.1

Can you share its TGI? I mean this compound: `O=C1c2ccccc2-c2nccc3cc(Cl)nc1c23`
10.4

---

TGI listing for selected molecules.
tested on: SNB-19 CNS; assay: NCI tumour cell line growth inhibition, 48 h

Worked examples follow.
O=C1C=C2CO[C@H]3OC[C@H](O)[C@@H]1[C@@H]23: > 100 µM
CCOC(=O)c1c2c(n3ccc(NC(=O)OC(C)(C)C)cc13)C(=O)c1ncccc1C2=O: 1.36 µM
CCCC(CC)c1c(O)c(O)c(C(CC)CCC)c(C(CC)CCC)c1C(CC)CCC (stereo not drawn): > 10 µM
O=C1CCC2CCc3cccc4oc1c2c34 (stereo not drawn): > 100 µM
COC(=O)/C=C\C(C#N)(C#N)N=Cc1ccc(C)s1: 32.8 µM

Please find the next molecule below.
Can you share its TGI? I mean this molecule: CC(NC1=NCCO1)c1cccc([N+](=O)[O-])c1 (stereo not drawn)
> 100 µM

---

tested on: SK-MEL-5 melanoma; assay: NCI tumour cell line growth inhibition, 48 h
Endpoint name: GI50

Worked examples follow.
Cc1[nH]c(C(=O)Nc2ccc(C(=O)N3CCNCC3)cc2OC(C)C)c(Cl)c1Cl: 1730 nM
Cc1nc2cncc(C#Cc3cncc(C(=O)Nc4ccc(CN5CCN(C)CC5)c(C(F)(F)F)c4)c3)c2nc1C: 839 nM
Nc1ccc(-c2nc3ccccc3[nH]2)c(O)c1: 21300 nM

Can you share its GI50? I mean this compound: COc1ccc(C(O)c2cc3c(N)c(C(=O)Nc4cccc(Cl)c4C)sc3nc2C)cc1 (configuration not stated)
874 nM

Can you share its GI50? I mean this compound: `CCN(CC)CCOc1ccc(Nc2ncc3cc(-c4c(Cl)cccc4Cl)c(=O)n(CCOC)c3n2)cc1`
1510 nM

Can you share its GI50? I mean this compound: `C=C1C(=O)O[C@H]2[C@H]1CC/C(CNS(=O)(=O)c1ccc3ccccc3c1)=C\CC[C@@]1(C)O[C@@H]21`
2890 nM

Can you share its GI50? I mean this compound: COc1cc2c(c(OC)c1OC)-c1ccc(NNC(=S)N(Cc3cccc(C[N+](Cc4cccc(CNC56CC7CC(CC(C7)C5)C6)c4)(Cc4cccc(CNC56CC7CC(CC(C7)C5)C6)c4)Cc4cccc(CN(C(=S)NNc5ccc6c(cc5=O)[C@@H](NC(C)=O)CCc5cc(OC)c(OC)c(OC)c5-6)C56CC7CC(CC(C7)C5)C6)c4)c3)C34CC5CC(CC(C5)C3)C4)c(=O)cc1[C@@H](NC(C)=O)CC2 (some centres not stated)
810 nM
